# SYSTEM_NAME: T1, human 5T4-His protein (human, UniProt Q13641 32-355)
# T1 construct: also called recombinant 5T4 protein (human 5T4-his tag); human 5T4 protein; not shown: His tag
# T1 sequence (looked up): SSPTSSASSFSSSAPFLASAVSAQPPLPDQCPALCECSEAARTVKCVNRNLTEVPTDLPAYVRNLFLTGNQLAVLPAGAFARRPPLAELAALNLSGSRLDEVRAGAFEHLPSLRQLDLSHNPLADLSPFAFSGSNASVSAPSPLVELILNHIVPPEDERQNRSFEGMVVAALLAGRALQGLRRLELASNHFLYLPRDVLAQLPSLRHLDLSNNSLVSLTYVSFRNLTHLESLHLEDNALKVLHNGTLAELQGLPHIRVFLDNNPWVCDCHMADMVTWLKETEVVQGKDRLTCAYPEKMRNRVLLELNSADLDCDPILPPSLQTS
# EXPERIMENT_DESCRIPTION: SPR Biacore, Protein A capture
Here, each record is paired with measured Kd data.
OUTCOME_MEASURE: Kd

BINDER	MEAS_VALUE
367B8 chimeric antibody (antibody, V domains shown, chimeric mAb) VH: QVQLQQPGTELVKPGASVKLSCKASGYTFTSYWMHWVKQRPEQGLEWIGNINPSNGNTNYNENFKSQATLTVDKSSSTAYMQLSSLTSEDSAVYYCARGGWDFDYWGQGTTLTVSS VL: QVVLTQSPAIMSASPGEKVTMTCSASSSVRYIHWYQQRSGTSPKRWIYDTSKLTSGVPVRFSGSGSGTSYSLTISSMEAEDAATYYCQQWTSKPPWTFGGGTKLEIR	285 pM
257F1 chimeric antibody (antibody, V domains shown, chimeric mAb) VH: QVLLQQSGAEVARPGASVKLSCKASGYTFTSYGLNWLRQRTGQGLEWIGEIYPRSENTHYNEKFKGKATLTADKSSSTAYMELRSLTSEDSAVYFCARGDWDFDHWGQGTTLTVSS VL: EILLTQSPAIIPASPGEKVTITCSASSSVSYMNWYQQKPGSSPKIWIYGISNLASGVPARFSGSGSGTFFSFTINSMEAEDVATYYCQQRSSYPRTFGGGTKLEIK	1480 pM
85B10 chimeric antibody (antibody, V domains shown, chimeric mAb) VH: QVQLQQSGPELVKPGASVKISCKASGYTFTAYYVNWVKQSHGKSLEWIGDINPNNGGTNYNQKFKGKATLTVDMSSSTAYMELRSLTSEDSAVYYCAKEGPPGAMDYWGQGTSVTVSS VL: SIVLTQTPKFLLVSAGDRVPITCKASQSVSNNVAWYQQKPGQSPKLLIYYASNPYTGVPDRFTGSGYGTDFTFTITTVQAEDLAVYFCQQVYSSPFTFGGGTKLEMK	792 pM

These entries and their values trace back to patent US20250154277A1.
